Experiment: recombinant barcode read abundance after kanamycin selection (control-corrected) (log10(CPM+1)); higher = more efficient recombination; sequences stand for … in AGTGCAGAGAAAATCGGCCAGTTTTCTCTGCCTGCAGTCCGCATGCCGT…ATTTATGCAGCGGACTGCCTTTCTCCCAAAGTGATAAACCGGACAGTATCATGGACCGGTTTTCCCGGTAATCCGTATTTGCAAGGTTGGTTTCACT; site = the 11-nt target
Label rule, in plain words: recombinant barcode read abundance (log10) of 0.3 and up is 1.0, under 0.3 is 0.0.

{"columns": ["query-sequence", "label-value"],
 "data": [
  ["AGGCGGGCTTGGGTTCTAACCTGTTGCGGGA [AGGCGGGCTCC_LTGcore_CT_RTGcore_TC] (site AGGCGGGCTCC) (LTG core: CT, RTG core: TC)", 0.0],
  ["AAACACACTTGGGTTCTAACCTGTTGCCTTT [AAACACACTAG_LTGcore_CT_RTGcore_AA] (site AAACACACTAG) (LTG core: CT, RTG core: AA)", 1.0],
  ["ATGTCCCCTTGGGTTCTAACCTGTTGCTCGG [ATGTCCCCTGA_LTGcore_CT_RTGcore_CC] (site ATGTCCCCTGA) (LTG core: CT, RTG core: CC)", 0.0],
  ["CGGTCCCTGTGGGTTCTAACCTGTTGCCACA [CGGTCCCCTTG_LTGcore_TG_RTGcore_TG] (site CGGTCCCCTTG) (LTG core: TG, RTG core: TG)", 0.0],
  ["TTATAAAACTGGGTTCTAACCTGTTGCCTGT [TTATAAACTAG_LTGcore_AC_RTGcore_AC] (site TTATAAACTAG) (LTG core: AC, RTG core: AC)", 0.0],
  ["ATGCTTTATTGGGTTCTAACCTGTTGCCTAG [ATGCTTTCTAG_LTGcore_AT_RTGcore_CT] (site ATGCTTTCTAG) (LTG core: AT, RTG core: CT)", 0.0],
  ["CGAGCCCCTTGGGTTCTAACCTGTTGCTGGT [CGAGCCCCTCA_LTGcore_CT_RTGcore_AC] (site CGAGCCCCTCA) (LTG core: CT, RTG core: AC)", 1.0],
  ["ATGTCCCAGTGGGTTCTAACCTGTTGCTCAG [ATGTCCCCTGA_LTGcore_AG_RTGcore_CT] (site ATGTCCCCTGA) (LTG core: AG, RTG core: CT)", 0.0],
  ["GGACACCGGTGGGTTCTAACCTGTTGCCTAG [GGACACCCTAG_LTGcore_GG_RTGcore_CT] (site GGACACCCTAG) (LTG core: GG, RTG core: CT)", 0.0],
  ["GGCTCCCAATGGGTTCTAACCTGTTGCGGAG [GGCTCCCCTCC_LTGcore_AA_RTGcore_CT] (site GGCTCCCCTCC) (LTG core: AA, RTG core: CT)", 0.0],
  ["CGGTCCCACTGGGTTCTAACCTGTTGCCAGT [CGGTCCCCTTG_LTGcore_AC_RTGcore_AC] (site CGGTCCCCTTG) (LTG core: AC, RTG core: AC)", 0.0]
]}

---

Assay: recombinant UMI read abundance after kanamycin selection (control-corrected) (log10(CPM+1)); higher = more efficient recombination; extreme values may be limits of the assay; sequences stand for … in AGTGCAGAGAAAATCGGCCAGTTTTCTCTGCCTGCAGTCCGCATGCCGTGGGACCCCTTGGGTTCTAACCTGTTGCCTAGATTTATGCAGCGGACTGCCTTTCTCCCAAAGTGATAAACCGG…AGGTTGGTTTCACT; site = the 11-nt donor
Label rule, in plain words: recombinant UMI read abundance (log10) of 0.02 and up is Met, under 0.02 is Not met.

{"columns": ["query-sequence", "label-value"],
 "data": [
  ["AATCTCGCATGGACCGGTTTTCCCGGTAATCCGTATTTGCG (site AATCTCGCTCG)", "Not met"],
  ["AACCGCCCATGGACCGGTTTTCCCGGTAATCCGTATTTGAT (site AACCGCCCTAT)", "Not met"],
  ["GCGGACACATGGACCGGTTTTCCCGGTAATCCGTATTTGCT (site GCGGACACTAG)", "Met"],
  ["CTACTTACATGGACCGGTTTTCCCGGTAATCCGTATTTGGA (site CTACTGACTTC)", "Not met"],
  ["GCCAATCCATGGACCGGTTTTCCCGGTAATCCGTATTTGAA (site GGCAATCCTTT)", "Not met"],
  ["CTACCGCCATGGACCGGTTTTCCCGGTAATCCGTATTTGCG (site CTACCGCCTCG)", "Met"],
  ["ATTAAGACATGGACCGGTTTTCCCGGTAATCCGTATTTGGT (site ATTTAGACTAC)", "Met"],
  ["GGATAGGCATGGACCGGTTTTCCCGGTAATCCGTATTTGCC (site GGATAGTCTGG)", "Met"],
  ["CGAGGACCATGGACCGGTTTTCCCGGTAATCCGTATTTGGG (site CGAGGAACTCC)", "Not met"]
]}

---

Test: recombinant UMI read abundance after kanamycin selection (control-corrected) (log10(CPM+1)); higher = more efficient recombination; extreme values may be limits of the assay; sequences stand for … in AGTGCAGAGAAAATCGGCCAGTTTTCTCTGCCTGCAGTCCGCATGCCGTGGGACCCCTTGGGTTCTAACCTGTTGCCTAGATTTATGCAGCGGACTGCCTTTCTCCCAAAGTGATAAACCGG…AGGTTGGTTTCACT; site = the 11-nt donor
Overview of recorded recombinant UMI read abundance (log10) for various sequences

{"columns": ["query-sequence", "recombinant UMI read abundance (log10)"],
 "data": [
  ["CAGACATCATGGACCGGTTTTCCCGGTAATCCGTATTTGAG (site CAGACATCTCT)", 3.06],
  ["TAATAGTCATGGACCGGTTTTCCCGGTAATCCGTATTTGCG (site TAATAGTCTCG)", 3.15],
  ["GTAAGTACATGGACCGGTTTTCCCGGTAATCCGTATTTGGA (site GTAAGTACTTC)", 1.17],
  ["GCTACCTCATGGACCGGTTTTCCCGGTAATCCGTATTTGTC (site GCTACCTCTGA)", 2.17],
  ["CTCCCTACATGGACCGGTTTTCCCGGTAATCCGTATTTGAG (site CTTCCTACTCT)", 0.0102],
  ["TAGGTTGCATGGACCGGTTTTCCCGGTAATCCGTATTTGTA (site TAGGTTGCTTA)", 2.39],
  ["GACACGTCATGGACCGGTTTTCCCGGTAATCCGTATTTGCC (site GACACGTCTGG)", 2.45],
  ["AGCCAAGCATGGACCGGTTTTCCCGGTAATCCGTATTTGAG (site ACCCAAGCTCT)", 0.641],
  ["GCATCTACATGGACCGGTTTTCCCGGTAATCCGTATTTGTG (site GCATCTACTCA)", 0.968],
  ["GAAGATCCATGGACCGGTTTTCCCGGTAATCCGTATTTGTT (site GAAGATACTAA)", 0.0059],
  ["GGCCACCCATGGACCGGTTTTCCCGGTAATCCGTATTTGTC (site GGCCACCCTTA)", 0.0183],
  ["CAAGAATCATGGACCGGTTTTCCCGGTAATCCGTATTTGAC (site CTAGTATCTGT)", 0.416],
  ["CCCATCTCATGGACCGGTTTTCCCGGTAATCCGTATTTGGG (site CCCATCTCTCC)", 0],
  ["ACTGAGACATGGACCGGTTTTCCCGGTAATCCGTATTTGGT (site AGTGAGACTAC)", 0.0694],
  ["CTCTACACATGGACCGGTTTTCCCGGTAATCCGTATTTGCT (site CTCTACACTAC)", 0.0172],
  ["GAGAAGCCATGGACCGGTTTTCCCGGTAATCCGTATTTGTC (site GAGAAGCCTGA)", 0],
  ["CTGGATACATGGACCGGTTTTCCCGGTAATCCGTATTTGTC (site CTGGATACTGA)", 1.89],
  ["ACGTTAGCATGGACCGGTTTTCCCGGTAATCCGTATTTGTG (site ACGTTAGCTCA)", 1.84]
]}

---

Assay: recombinant barcode read abundance after kanamycin selection (control-corrected) (log10(CPM+1)); higher = more efficient recombination; sequences stand for … in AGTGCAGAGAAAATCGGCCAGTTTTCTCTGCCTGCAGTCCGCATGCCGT…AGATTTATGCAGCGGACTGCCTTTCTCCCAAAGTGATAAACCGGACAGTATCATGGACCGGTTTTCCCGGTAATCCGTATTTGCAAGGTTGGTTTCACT; site = the 11-nt target
Label rule, in plain words: recombinant barcode read abundance (log10) of 0.4 and up is 1, under 0.4 is 0.

{"columns": ["query-sequence", "label-value"],
 "data": [
  ["CGGTAACCTTGGGTTCTAACCTGTTGCCT (site AGGTAACCTAG)", 1],
  ["GGTCGAACTTGGGTTCTAACCTGTTGCCT (site GGTCAAACTAG)", 0],
  ["CGGATCCCTTGGGTTCTAACCTGTTGCCT (site CCGATCCCTAG)", 0],
  ["TGGAGCCCTTGGGTTCTAACCTGTTGCTT (site TGGAGTCCTAA)", 0],
  ["GATGGGACTTGGGTTCTAACCTGTTGCCG (site GATAGGACTAG)", 0],
  ["TGACCAGCTTGGGTTCTAACCTGTTGCCT (site TGAGAAGCTAG)", 0],
  ["ACACCCTCTTGGGTTCTAACCTGTTGCAG (site GGTATAACTTG)", 0],
  ["GGCACTACTTGGGTTCTAACCTGTTGCCT (site GGCACCACTAG)", 1],
  ["TGTCTAGCTTGGGTTCTAACCTGTTGCCT (site TGGCTAGCTAG)", 0],
  ["TCCAACCCTTGGGTTCTAACCTGTTGCGG (site TCGAACCCTCC)", 0],
  ["CACGGAACTTGGGTTCTAACCTGTTGCCT (site CACGTTACTAG)", 1],
  ["GTCGTCGCTTGGGTTCTAACCTGTTGCCT (site GTCGTCGCTAG)", 0],
  ["ACTTAGTCTTGGGTTCTAACCTGTTGCTA (site ACTTAGTCTTA)", 0],
  ["CTCCGTACTTGGGTTCTAACCTGTTGCAT (site CTCCGTACTAT)", 1],
  ["GCACCCTCTTGGGTTCTAACCTGTTGCCT (site GCACCCTCTAG)", 1],
  ["TCTAACCCTTGGGTTCTAACCTGTTGCAT (site TCTAAGCCTAT)", 0],
  ["CGATCTACTTGGGTTCTAACCTGTTGCAG (site AAGGGGCCTAG)", 0],
  ["TGGGACTCTTGGGTTCTAACCTGTTGCCA (site TGGGACTCTTG)", 1],
  ["TATACAGCTTGGGTTCTAACCTGTTGCCT (site TAAACAGCTAG)", 0],
  ["ATCAAAGCTTGGGTTCTAACCTGTTGCCT (site ATCACAGCTAG)", 0]
]}
